Hey, just so you know, these numbers are from ChEMBL document CHEMBL4680259.

Assay method text: AUC (0 to infinity) in rat at 0.5 mg/kg, iv
Type: ADME, organism-based
Parameters: route intravenous, time infinity, dose 0.5 mg/kg
Stated conditions: in vivo
Readout label: AUC(0-inf) (ng·h/mL)
# number only, unit ng·h/mL dropped from output

The compound listed as NC(=O)N1N=C(c2ccc(C(F)(F)F)cc2)CC1c1cn(Cc2ccc(OCCN3CCCCCC3)cc2)c2ccc(Br)cc12 (stereo unspecified) shows AUC(0-inf) equal to 585

---

Tested system: Interleukin-6 receptor subunit beta (Homo sapiens)
Sequence (whole entry): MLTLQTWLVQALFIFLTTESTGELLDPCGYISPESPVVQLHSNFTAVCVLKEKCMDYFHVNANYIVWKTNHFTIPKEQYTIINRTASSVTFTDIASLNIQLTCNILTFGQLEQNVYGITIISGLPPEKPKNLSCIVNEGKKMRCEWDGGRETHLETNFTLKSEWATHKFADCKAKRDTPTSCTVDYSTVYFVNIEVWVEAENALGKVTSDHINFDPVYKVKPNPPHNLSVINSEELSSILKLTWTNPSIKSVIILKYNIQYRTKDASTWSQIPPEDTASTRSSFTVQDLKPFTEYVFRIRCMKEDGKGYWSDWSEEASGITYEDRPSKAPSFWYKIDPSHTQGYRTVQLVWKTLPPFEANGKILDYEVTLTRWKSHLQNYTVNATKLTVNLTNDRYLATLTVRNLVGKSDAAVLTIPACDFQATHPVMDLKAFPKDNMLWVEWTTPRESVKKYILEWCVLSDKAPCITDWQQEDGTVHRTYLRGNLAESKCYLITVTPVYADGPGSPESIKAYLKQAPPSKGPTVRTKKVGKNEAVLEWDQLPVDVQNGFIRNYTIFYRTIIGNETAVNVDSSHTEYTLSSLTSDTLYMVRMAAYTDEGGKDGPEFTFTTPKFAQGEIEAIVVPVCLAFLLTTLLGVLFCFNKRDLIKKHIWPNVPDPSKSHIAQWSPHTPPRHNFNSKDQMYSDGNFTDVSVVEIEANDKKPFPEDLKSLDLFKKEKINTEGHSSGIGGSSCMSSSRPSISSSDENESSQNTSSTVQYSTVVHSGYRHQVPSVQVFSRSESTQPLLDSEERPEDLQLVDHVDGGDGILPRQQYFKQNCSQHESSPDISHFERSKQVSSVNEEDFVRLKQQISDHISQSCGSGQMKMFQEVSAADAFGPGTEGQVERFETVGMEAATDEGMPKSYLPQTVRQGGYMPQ
Assay method text: Binding affinity to immobilized GP130 (unknown origin) assessed as response unit at 20 uM by SPR analysis
Readout label: Activity (RU)
Numbers only here, please. The scale is RU.

Here's what some known entries look like.
With Interleukin-6 receptor subunit beta (Homo sapiens) as the test system, CN(C)CCOc1ccc(Cn2cc(C3CC(c4ccc(C(F)(F)F)cc4)=NN3C(N)=O)c3cc(Br)ccc32)cc1 (centres undefined) showed Activity of 22.7

Here NC(=O)N1N=C(c2ccc(C(F)(F)F)cc2)CC1c1cn(Cc2ccc(OCCN3CCCCC3)cc2)c2ccccc12 (centres undefined) was tested on Interleukin-6 receptor subunit beta (Homo sapiens), and its Activity came to 8.2

Entry NC(=O)N1N=C(c2cccc(C(F)(F)F)c2)CC1c1cn(Cc2ccc(OCCN3CCCCC3)cc2)c2ccc(Br)cc12 (centres undefined) under Interleukin-6 receptor subunit beta (Homo sapiens) had Activity of 10.2

Please look at the following molecule next.
Hey, Interleukin-6 receptor subunit beta (Homo sapiens) data for NC(=O)N1N=C(c2cccc(Cl)c2)CC1c1cn(Cc2ccc(OCCN3CCCCC3)cc2)c2ccc(Br)cc12 (centres undefined) : Activity came out at 27.4
